targetUnderTest: T1, SARS-CoV-2 S on CHO-S cells (SARS-CoV-2, UniProt P0DTC2 14-1273)
T1 construct: whole, on cells
assayNotes: flow cytometry, CHO-S cells
pEC50: −log10 of the molar value.
Please use Yes whenever pEC50 is not below 9, and No whenever it is.

{"columns": ["binder", "labelClass"],
 "data": [
  ["NRCoV2-SR03 VHH-Fc (Fc fusion, bivalent VHH-Fc) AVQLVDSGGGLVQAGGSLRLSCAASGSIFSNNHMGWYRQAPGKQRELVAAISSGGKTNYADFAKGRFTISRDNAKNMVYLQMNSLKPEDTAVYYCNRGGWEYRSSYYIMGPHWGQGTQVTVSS", "No"],
  ["NRCoV2-17 VHH-Fc (Fc fusion, bivalent VHH-Fc) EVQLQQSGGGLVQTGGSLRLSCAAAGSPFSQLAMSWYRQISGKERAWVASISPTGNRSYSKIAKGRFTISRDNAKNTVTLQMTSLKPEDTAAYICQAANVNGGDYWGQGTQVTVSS", "Yes"],
  ["NRCoV2-S2A4 VHH-Fc (Fc fusion, bivalent VHH-Fc) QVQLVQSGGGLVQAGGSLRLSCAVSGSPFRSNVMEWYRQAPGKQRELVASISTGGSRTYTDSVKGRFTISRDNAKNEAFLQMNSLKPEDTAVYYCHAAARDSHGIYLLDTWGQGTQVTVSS", "Yes"],
  ["NRCoV2-05 VHH-Fc (Fc fusion, bivalent VHH-Fc) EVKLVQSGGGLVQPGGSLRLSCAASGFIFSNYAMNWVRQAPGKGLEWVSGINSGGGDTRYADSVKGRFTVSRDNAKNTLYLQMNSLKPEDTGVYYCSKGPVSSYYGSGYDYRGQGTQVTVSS", "Yes"],
  ["NRCoV2-MRed07 VHH-Fc (Fc fusion, bivalent VHH-Fc) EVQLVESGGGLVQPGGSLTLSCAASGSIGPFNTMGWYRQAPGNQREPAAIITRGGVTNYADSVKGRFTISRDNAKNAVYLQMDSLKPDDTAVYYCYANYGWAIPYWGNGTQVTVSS", "No"]
]}
